# IC50 per entry for SARS-CoV-2 3CL^pro (Severe acute respiratory syndrome coronavirus 2)
Write the answer as a number in µM, unit excluded.

Test system SARS-CoV-2 3CL^pro (Severe acute respiratory syndrome coronavirus 2); read-out IC50; what value for CC(=O)C1=C(O)C=C2Oc3c(-c4csc(N/N=C/c5ccc(C)s5)n4)c(O)c(C)c(O)c3[C@@]2(C)C1=O [(+)-3d] ? 40.7

Test system SARS-CoV-2 3CL^pro (Severe acute respiratory syndrome coronavirus 2); read-out IC50; what value for CC(=O)C1=C(O)C=C2Oc3c(-c4csc(N/N=C/c5cc(Br)cs5)n4)c(O)c(C)c(O)c3[C@]2(C)C1=O [(−)-3f] ? 72.8

Test system SARS-CoV-2 3CL^pro (Severe acute respiratory syndrome coronavirus 2); read-out IC50; what value for CC(=O)C1=C(O)C=C2Oc3c(-c4csc(N/N=C/c5cccs5)n4)c(O)c(C)c(O)c3[C@]2(C)C1=O [(−)-3b] ? 40.4

---
Test system SARS-CoV-2 3CL^pro (Severe acute respiratory syndrome coronavirus 2); read-out IC50; what value for CC(=O)C1=C(O)C=C2Oc3c(-c4csc(N/N=C/c5sccc5C)n4)c(O)c(C)c(O)c3[C@@]2(C)C1=O [(+)-3c] ? 34

Test system SARS-CoV-2 3CL^pro (Severe acute respiratory syndrome coronavirus 2); read-out IC50; what value for CC(=O)C1=C(O)C=C2Oc3c(-c4csc(N/N=C/c5ccc(Br)s5)n4)c(O)c(C)c(O)c3[C@@]2(C)C1=O [(+)-3e] ? 28.2

Test system SARS-CoV-2 3CL^pro (Severe acute respiratory syndrome coronavirus 2); read-out IC50; what value for CC(=O)C1=C(O)C=C2Oc3c(-c4csc(N/N=C/c5ccsc5)n4)c(O)c(C)c(O)c3[C@]2(C)C1=O [(−)-3a] ? 41.6

Test system SARS-CoV-2 3CL^pro (Severe acute respiratory syndrome coronavirus 2); read-out IC50; what value for CC(=O)C1=C(O)C=C2Oc3c(-c4csc(N/N=C/c5cccs5)n4)c(O)c(C)c(O)c3[C@@]2(C)C1=O [(+)-3b] ? 49.7

Test system SARS-CoV-2 3CL^pro (Severe acute respiratory syndrome coronavirus 2); read-out IC50; what value for CC(=O)C1=C(O)C=C2Oc3c(-c4csc(N/N=C/c5ccsc5)n4)c(O)c(C)c(O)c3[C@@]2(C)C1=O [(+)-3a] ? 51

Test system SARS-CoV-2 3CL^pro (Severe acute respiratory syndrome coronavirus 2); read-out IC50; what value for CC(=O)C1=C(O)C=C2Oc3c(-c4csc(N/N=C/c5sccc5C)n4)c(O)c(C)c(O)c3[C@]2(C)C1=O [(−)-3c] ? 48

Test system SARS-CoV-2 3CL^pro (Severe acute respiratory syndrome coronavirus 2); read-out IC50; what value for CC(=O)C1=C(O)C=C2Oc3c(-c4csc(N/N=C/c5cc(Br)cs5)n4)c(O)c(C)c(O)c3[C@@]2(C)C1=O [(+)-3f] ? 50.2

Test system SARS-CoV-2 3CL^pro (Severe acute respiratory syndrome coronavirus 2); read-out IC50; what value for CC(=O)C1=C(O)C=C2Oc3c(-c4csc(N/N=C/c5ccc(Br)s5)n4)c(O)c(C)c(O)c3[C@]2(C)C1=O [(−)-3e] ? 85.8

Test system SARS-CoV-2 3CL^pro (Severe acute respiratory syndrome coronavirus 2); read-out IC50; what value for CC(=O)C1=C(O)C=C2Oc3c(-c4csc(N/N=C/c5ccc(C)s5)n4)c(O)c(C)c(O)c3[C@]2(C)C1=O [(−)-3d] ? 41

These measurements were taken from paper PMC10893357.
